test-system: cytosolic receptor of retinoic acid (C.R.A.B.P.) of rat testicles (Rattus norvegicus)
Construct: to obtain the cytosol; from tissue; host or cells: rat testicles, 105000×g cytosol
Sequence (P62966 whole entry): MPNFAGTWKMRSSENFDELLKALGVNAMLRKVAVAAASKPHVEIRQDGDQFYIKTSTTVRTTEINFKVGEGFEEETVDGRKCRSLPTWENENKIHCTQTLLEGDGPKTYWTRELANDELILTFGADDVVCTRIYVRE
assay-summary: Affinity for the cytosolic receptor of retinoic acid (C.R.A.B.P.) of rat testicles: inhibition of specific linking of tritiated retinoic acid
Format: binding
run-conditions: ligand 4 μM; tritiated retinoic acid 20 nM; rat testicle cytosol 2 mg/ml; 16 h at 4° C., pH 7.4; unmarked retinoic acid = 100% inhibition
Label scheme for inhibition at 4 µM: lower than 70% is condition not met, 70% and above is condition met.

Use these answered entries as a reference point.
C/C(=C\c1ccc(C(=O)O)cc1)c1cccs1: condition not met
C/C(=C\c1ccc(C(=O)O)cc1)c1cccc(C(C)C)c1: condition not met
C/C(=C\c1ccc(C(=O)O)cc1)c1ccccc1: condition not met

Ask: Exam item: decide whether the reported inhibition at 4 µM for `C/C(=C\c1ccc(C(=O)N2CCN(C)CC2)cc1)c1ccc(C(C)C)cc1` is at least 70%.
Reply: condition not met

Ask: Item: `C/C(=C\c1ccc(C(=O)O)cc1)c1cc(C(C)C)cs1`
Reply: condition met

Ask: Same read-out for `C/C(=C\c1ccc(C(=O)O)cc1)c1ccc(C(C)C)s1` ?
Reply: condition met
